As a worked illustration, we turn to MIC data collected for S. aureus DA28823 (WT).
Supply the numeric figure in µg/mL, leaving out any unit text.

Q: Given CN[C@H](CC(C)C)C(=O)N[C@H]1C(=O)N[C@@H](CC(N)=O)C(=O)N[C@H]2C(=O)N[C@H]3C(=O)N[C@H](C(=O)N[C@H](C(=O)O)c4cc(O)cc(O)c4-c4cc3ccc4O)[C@H](O)c3ccc(c(Cl)c3)Oc3cc2cc(c3O[C@@H]2O[C@H](CO)[C@@H](O)[C@H](O)[C@H]2O[C@H]2C[C@](C)(N)[C@H](O)[C@H](C)O2)Oc2ccc(cc2Cl)[C@H]1O , respond with its MIC.
Ans: 1.5

---
Q: Given CCO/N=C(\C(=O)N[C@@H]1C(=O)N2C(C(=O)[O-])=C(Sc3nc(-c4cc[n+](C)cc4)cs3)CS[C@H]12)c1nsc(N)n1 , respond with its MIC.
Ans: 0.25

Measured values drawn from paper PMC5161045 for this set.
